- TEST SYSTEM: MAPK14 (human) (UniProt Q16539)
- Sequence (Q16539 whole entry, looked up): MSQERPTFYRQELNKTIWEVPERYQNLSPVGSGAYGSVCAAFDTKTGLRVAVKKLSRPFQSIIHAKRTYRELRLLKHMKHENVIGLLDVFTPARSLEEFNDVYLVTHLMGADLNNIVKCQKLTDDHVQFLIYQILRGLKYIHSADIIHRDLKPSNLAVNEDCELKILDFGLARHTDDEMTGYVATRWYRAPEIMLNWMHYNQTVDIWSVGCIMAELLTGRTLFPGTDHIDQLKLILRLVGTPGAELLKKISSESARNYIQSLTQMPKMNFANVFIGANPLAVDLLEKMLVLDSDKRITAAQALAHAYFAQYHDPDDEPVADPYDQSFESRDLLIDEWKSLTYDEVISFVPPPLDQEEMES
- PROCEDURE TEXT: In vitro Inhibition of TNF-alpha Production in PBMC Cells

MOLECULE SMILES | IC50 [nM]
COC(=O)c1c(-c2ccc(F)cc2)c(-c2ccncc2)c(Nc2ccc(N3CCOCC3)cc2)n1C | 1560
CCN1CCN(c2c(-c3ccncc3)c(-c3ccc(F)cc3)c(C(=O)OC)n2C)CC1 | 135
CN(C)C(=O)c1c(-c2ccc(F)cc2)c(-c2ccncc2)c(Br)n1C | 301
COC(=O)c1c(-c2ccc(F)cc2)c(-c2ccncc2)c(NCCc2ccncc2)n1C | 145
Fc1ccc(-c2cn3c(c2-c2ccncc2)CN(Cc2ccccc2)CC3)cc1 | 11
COC(=O)c1c(-c2ccc(F)cc2)c(-c2ccncc2)c(N(C)CCN2CCSCC2)n1C | 183
COC(=O)c1c(-c2ccc(F)cc2)c(-c2ccncc2)c(N2CCN(C3CCCC3)CC2)n1C | 139
COC(=O)c1c(-c2ccncc2)c(-c2ccc(F)cc2)c(N(C)CCN2CCOCC2)n1C | 3510
Fc1ccc(-c2c[nH]c(CNCc3ccncc3)c2-c2ccncc2)cc1 | 74
CCCc1[nH]cc(-c2ccc(F)cc2)c1-c1ccnc(N[C@@H](C)COC)n1 | 86

* * *

- Test system: MAPK14 (BALB/cJ mice)
- PROCEDURE TEXT: In vivo Inhibition of LPS-induced TNF-alpha Production
- CONDITION LABEL: dose or concentration not given here
ATTRIBUTE MEASURED: inhibition (%)

MOLECULE | OBS VALUE
COc1ccc(CNCc2[nH]cc(-c3ccncc3)c2-c2ccc(F)cc2)cc1 | -30
COC(=O)c1c(-c2ccc(F)cc2)c(-c2ccncc2)c(NCCN2CCOCC2)n1C | 44
COC(=O)c1c(-c2ccc(F)cc2)c(-c2ccncc2)c(N2CCN(CC3CC3)CC2)n1C | 66.3
COC(=O)c1c(-c2ccc(F)cc2)c(-c2ccncc2)cn1CCN(C)C | -32
O=C1CCCn2c(NCCN3CCOCC3)c(-c3ccncc3)c(-c3ccc(F)cc3)c21 | 51
COC(=O)C1CCn2c(I)c(-c3ccncc3)c(-c3ccc(F)cc3)c2C1=O (stereo not given) | 15
C[C@H](Nc1nccc(-c2cn(CCN3CCOCC3)cc2-c2ccc(F)cc2)n1)c1ccccc1 | -21
COC(=O)c1c(-c2ccncc2)c(-c2ccc(F)cc2)c(C#CCCN2CCOCC2)n1C | -4
COC(=O)c1c(-c2ccc(F)cc2)c(-c2ccncc2)c(C2=CCNCC2)n1C | 96
Fc1ccc(-c2cn3c(c2-c2ccncc2)CN(Cc2ccccc2)CC3)cc1 | -6

* * *

Heads up, these compounds all have IC50 values measured for MAPK14 (UniProt Q16539).
ATTRIBUTE MEASURED: IC50 (µM)

MOLECULE SMILES | SIGN QUALIFIER | OBS VALUE
COC(=O)C(=O)c1c(-c2ccc(F)cc2)c(-c2ccncc2)c(N2CCNCC2)n1C | = | 10
COC(=O)c1c(-c2ccc(F)cc2)c(-c2ccncc2)c(N2CCCC2)n1C | = | 10
CC(=O)c1c(-c2ccc(F)cc2)c(-c2ccncc2)c(N2CCN(C(C)=O)CC2)n1C | = | 2
COC(=O)c1c(-c2ccc(F)cc2)c(-c2ccncc2)c(N)n1C | = | 10
Cn1c(N2CCCC2)c(-c2ccncc2)c(-c2ccc(F)cc2)c1C(C)(C)O | = | 2
COC(=O)c1c(-c2ccc(F)cc2)c(-c2ccncc2)c(Nc2ccc(N(C)C)cc2)n1C | > | 10
CCOC(=O)c1c(-c2cc(F)cc(F)c2)c(-c2ccncc2)c(Br)n1C | > | 10
CN1CCN(c2c(-c3ccncc3)c(-c3ccc(F)cc3)c(C#N)n2C)CC1 | = | 2
